- EXPERIMENT: Solubility of the crystalline forms in methylcyclohexane (Mullin method)
- Format: physicochemical
- CONDITION DETAILS: methylcyclohexane, 40 °C, organic solvent or mixture, thermodynamic from solid, in methylcyclohexane, 40.00 °C, at equilibrium; read-out: Solubility Concentration
READOUT TYPE: solubility (mg/mL)

# COMPOUND, RESULT VALUE
measured = [
    ("Cc1c(C(=O)NN2CCCCC2)nn(-c2ccc(Cl)cc2Cl)c1-c1ccc(Cl)cc1 [Form I, reference compound]", 13.7),
]

---

- EXPERIMENT: Solubility of the crystalline forms in methylcyclohexane (Mullin method)
- Assay type: physicochemical
- CONDITION DETAILS: methylcyclohexane, 60 °C, organic solvent or mixture, thermodynamic from solid, in methylcyclohexane, 60.00 °C, at equilibrium; read-out: Solubility Concentration

# MOLECULE, OUTPUT UNIT, solubility
records = [
    ("Cc1c(C(=O)NN2CCCCC2)nn(-c2ccc(Cl)cc2Cl)c1-c1ccc(Cl)cc1 [Form I, reference compound]", "mg/mL", 31.2),
]

---

- EXPERIMENT: Solubility of the crystalline forms in methylcyclohexane (Mullin method)
- Assay type: physicochemical
- CONDITION DETAILS: methylcyclohexane, 20 °C, organic solvent or mixture, thermodynamic from solid, in methylcyclohexane, 20.00 °C, at equilibrium; read-out: Solubility Concentration

# COMPOUND, OUTPUT UNIT, solubility
measured = [
    ("Cc1c(C(=O)NN2CCCCC2)nn(-c2ccc(Cl)cc2Cl)c1-c1ccc(Cl)cc1 [Form I, reference compound]", "µg/mL", 6920),
]

These measurements were taken from patent US20100190827A1.
